Experiment: protein stability index of a GFP-peptide fusion (yeast GPS) (PSI 1-4); higher = more stable; sorted into four equal gates, so the index is relative within each strain
Details: pdr5∆
Rule: protein stability index of 3 or more gives condition met; anything lower gives condition not met.

Answer whether protein stability index of SVAPTKQREIVKAFLSI [NUT1] is greater than or equal to 3.
condition not met

Given the entry ESMDFLVLADAFDIELS [YCS4] , answer whether its protein stability index meets or surpasses 3.
condition not met

In plain terms: is recorded protein stability index at least 3 for HAKFSPVSTASYRLLPQ [RPC40] ?
condition not met

Evaluate NTNPSPLKTQTKNGTPN [GAL11] : protein stability index at minimum 3?
condition not met

I'd appreciate it if you could say whether RVRNKDIRKFLDGIYVS [RPL9A] has protein stability index at least equal to 3.
condition not met

Check this sequence for protein stability index at or above 3: NALWILVDLVSHFSPDI [ITC1]
condition not met

Identify whether the reported protein stability index of the following sequence is 3 or greater: VKGLLNTYKRLVIGIFK [YJL039C/NUP192]
condition not met

Is protein stability index for SGEDTNVGLPILKSLKN [YOR098C/NUP1] at or above 3?
condition met

# check: protein stability index of FNTEAEQTVSAVTEATS [RGR1] is greater than or equal to 3
condition met

Check if protein stability index >= 3 (inclusive). Item: PPSKHSTLTLSDSEDSD [ESC2]
condition not met

Can EQENMRKVREQEELKKR [MED2] be said to have protein stability index at or above 3?
condition met

Decide: is the reported value of protein stability index for REKNALKRLAWQYIVID [ISW2] equal to or greater than 3?
condition not met

API: above_or_equal(metric=protein stability index, cutoff=3) for item DYYQSIYAKYGAKGSTL [FAS2]
condition not met

Item GISMFDYISGISVGLYD [SKI6] with protein stability index of 3 or above?
condition not met

Reported protein stability index reaches at least 3 for AGADRLQQGMRGAWGKP [RPL10] ?
condition met

Hi team, for DQLEDLREHFKNTEEGK [QCR6] , is the recorded protein stability index at or above 3?
condition met

Textbook exercise: given the entry FICTTFRTDMLQVADKF [SMC3] , state whether its protein stability index is greater than or equal to 3.
condition not met

Given GKMVRAQDVALAKKWFL [PRP8] , state whether its protein stability index is at least 3.
condition not met

Quick check: does SMDTKKKHKQKKVLEID [BRN1] have protein stability index greater than or equal to 3?
condition met

Decide: is the reported value of protein stability index for ADVKGVCTEAGMYALRE [RPT6] equal to or greater than 3?
condition not met

Given the entry DDLERLKKIRAHRGIRH [RPS18A] , answer whether its protein stability index meets or surpasses 3.
condition not met

Threshold query (protein stability index >= 3) on VFLFDIEKVDRENMICK [RRI2]
condition met

Can LHQRTHKQVYPLRMETI [DSN1] be said to have protein stability index at or above 3?
condition not met

----------
Please provide measured protein stability index for the entries that follow.
Test: protein stability index of a GFP-peptide fusion (yeast GPS) (PSI 1-4); higher = more stable; sorted into four equal gates, so the index is relative within each strain
Conditions: pdr5∆
# print the numeric value only

// lookup protein stability index for QLVPIRLEFDQDRDRFF [SNF5]
2.98

Give the measured protein stability index of LIDSLPGVDVSAEEQLR [SRB7] .
2.23

// lookup protein stability index for LNKSDLLDKYGKTGLSN [YML103C/NUP188]
3.17

Need protein stability index, item VVDTEETATLIMNELYR [SMC3]
3.17

Quick one: protein stability index for RHHWQYTKASLAKERQK [SSN8] ?
1.66

Record request: protein stability index value, item ARNVTFDSLRNFIVHSP [GRR1]
2.35

Bench note: what protein stability index did FGNIQKVVNFWLLHNGF [RPO21] show?
1.83

Entry PSEIPDAHKAEQEDIIE [SWI3] : reported protein stability index = ?
3.29

Fill blank: measured protein stability index of the sequence PWNDDYPFLLSFLGEAK [YML103C/NUP188] is ____.
1.6

Give its protein stability index value. Item: YPVYTRLRTLCRDSDDH [DIS3]
2.77

What value of protein stability index has been reported for the following sequence? CSFITQDKMFVSNPIRK [FAS1]
1.3

So what's the measured protein stability index for this one? KLEPKEIVRDILHTKES [SIR4]
3.1

What value of measured protein stability index is listed for SQDATKVDATPEESKPI [YLR335W/NUP2] ?
3.17

Reported protein stability index for LDERFASRVALNKEKLG [IRR1] : what is it?
1.52

----------
Experiment: protein stability index of a GFP-peptide fusion (yeast GPS) (PSI 1-4); higher = more stable; sorted into four equal gates, so the index is relative within each strain
Settings: san1∆
ASSAY_ENDPOINT: protein stability index
Quick one: just the number, no unit, thanks!

Form field: reported protein stability index of VMGTPLTNMMSPMGNAY [PGD1]
1.62

Please give the measured protein stability index for this sequence: HGDAAVLLVEKYGAEYD [NAS6]
2.96

Please give the measured protein stability index for this sequence: LEIALFKYRKARLEPGT [RPO31]
2.37

Any idea what its protein stability index is? The sequence is SSLYEASLNALKESIKN [RPN1]
3.38

# protein stability index lookup, item VQLRYGDYDSHDISRYV [PRP8]
2.69

protein stability index for AISTGAKIDVMLTIARL [RPN7] ?
3.33

What does the data say about its protein stability index? Entry: ELVTISWVQPRIISGDQ [RPN9]
2.27

Which protein stability index is reported for this sequence? MDSKGKITIGIQRTTES [RGR1]
3.33

# lookup: protein stability index of QVENMKWDFAKDIKGYG [PRE4]
1.41

Field request: protein stability index | item: DFSARTVISGDPNLELD [RPO21]
2.58

Form field: reported protein stability index of IVDGKLKTEKIFKEINE [FAS1]
1.91

Would you kindly share the measured protein stability index for GGLKSCDLDFPLRENTN [YDL116W/NUP84] ?
2.25

Which protein stability index value is on record for IEIKISDPLTVFSESCS [SNU114] ?
2.42

Which protein stability index value is on record for FLDSQRVWAEYATKRQE [PRP8] ?
1.92

Name the recorded protein stability index for PQGFSSVERGRKRAHSL [REC8] .
3.36

----------
Test: protein stability index of a GFP-peptide fusion (yeast GPS) (PSI 1-4); higher = more stable; sorted into four equal gates, so the index is relative within each strain
Conditions: doa10∆
For each entry below, report its protein stability index value.
No unit in the answer, only the number.

Query: protein stability index; subject: EGDELENKTKKDNDKNL [SRB4]
3.33

// protein stability index lookup, key: MCVSKGNASLKYIALQV [YCG1]
2.54

# protein stability index lookup, item VKSLRQGKSKLIIIAAN [RPL30]
2.03

For the sequence LLKELSKNAQFICTTFR [SMC3] , what protein stability index is on record?
2.45

Would you kindly share the measured protein stability index for DDDNSNVDYYNVAHRIK [SNF2] ?
3.31

Param item = LCVLWDDLQSSVIPEVD [YCG1] ; retrieve measured protein stability index.
1.88

I'd like to know its protein stability index. The sequence in question is AAMVIMHLMALHIHGSS [COB]
1.9

Which protein stability index is listed for PTSAQKSAVSHAPAYHR [IRR1] ?
2.81

What protein stability index value was documented for this sequence, SSVFLPSRKDCMEVASA [BRR2] ?
2.73

Given the entry VGKRVRYLVGGNKIQKV [RPS7A] , report its measured protein stability index.
1.25

I would be grateful if you could share the reported protein stability index for NDFNDLNIDWSTTGDNG [MED2] .
2.84

Look at this sequence and give its reported protein stability index. LPSSNGSSRIIASDGSE [RRP42]
3.08

What does the record list as protein stability index for KSSAFVIDIGASGCNVT [ARP7] ?
1.81

Look up protein stability index: IKNIGKSLKNNFYRPLL [YML103C/NUP188]
2.6

What value of measured protein stability index is listed for IVFDICQILDGELDVLQ [PRP8] ?
2.7

----------
Assay: protein stability index of a GFP-peptide fusion (yeast GPS) (PSI 1-4); higher = more stable; sorted into four equal gates, so the index is relative within each strain
Settings: doa10∆
ASSAY_ENDPOINT: protein stability index
Write the value as a bare number.

# get_value(readout='protein stability index', item= GYRSRTRYMFQRDFRKH [RPL21A] )
3.16

Entry EGGEAEFIFGTYNMIDA [ARP7] has what protein stability index?
2.79

Which protein stability index is listed for ENTKDNLVKEKEALQNN [SMC1] ?
3.51

Would you kindly share the measured protein stability index for FDQAGKKVSRRNARATR [RPL13A] ?
2.51

Look at this sequence and give its reported protein stability index. DKDNAEKTLGKSLSKAI [RPN7]
2.27

Bench note: what protein stability index did EQQLFEIFAFGNIKDLP [CSN9] show?
2.88

Give the measured protein stability index of DPLVSLMMVEKVPDSTY [RPT6] .
2.59

Recorded protein stability index for TETEVEREQPQENKNID [SRB4] , please?
3.42
